Reference for the values: patent US20050267071A1

biological target: SARS-associated coronavirus protease 3CL^pro (Severe acute respiratory syndrome coronavirus); assay type: binding
Measured ΔH (Binding Enthalpy of Selected Compounds to 3CL^pro) accompanies every entry in the list below.
Respond with the bare value in kcal/mol.

COMPOUND	UNIT_TEXT	RESULT
O=C(Oc1ccc(OC(=O)c2cc(B(O)O)cc([N+](=O)[O-])c2)cc1)c1cc(B(O)O)cc([N+](=O)[O-])c1 [FL-078]	kcal/mol	-4.9
O=C(OCc1ccccc1COC(=O)c1cc(B(O)O)cc([N+](=O)[O-])c1)c1cc(B(O)O)cc([N+](=O)[O-])c1 [FL-136]	kcal/mol	-9.2
O=C(Oc1ccc(OC(=O)c2cc(B(O)O)cc([N+](=O)[O-])c2)c(Cl)c1)c1cc(B(O)O)cc([N+](=O)[O-])c1 [FL-079]	kcal/mol	-1.7

Continue with the next compound.
Input: For the compound shown here, O=C(Oc1cccc(OC(=O)c2cc(B(O)O)cc([N+](=O)[O-])c2)c1)c1cc(B(O)O)cc([N+](=O)[O-])c1 [FL-106] , give the reported ΔH (Binding Enthalpy of Selected Compounds to 3CL^pro).
Output: -5.3

----------
target: SARS-associated coronavirus protease 3CL^pro (Severe acute respiratory syndrome coronavirus, UniProt P0C6U8)
RESULT_TYPE: pKi
By convention, pKi is the negative base-10 log of a molar concentration.

O=C(Oc1cccc(B(O)O)c1)c1cc(B(O)O)cc([N+](=O)[O-])c1 3.72
O=C(Oc1c(Cl)cccc1[N+](=O)[O-])c1ccc(B(O)O)cc1F 4.74
O=C(Oc1cc(OC(=O)c2cc(B(O)O)cc([N+](=O)[O-])c2)cc(OC(=O)c2cc(B(O)O)cc([N+](=O)[O-])c2)c1)c1cc(B(O)O)cc([N+](=O)[O-])c1 4.10

Input: For the molecule shown here, O=C(OCc1ccccc1)c1cc(B(O)O)cc([N+](=O)[O-])c1 , give the reported pKi.
Output: 4.45

----------
Measured log10 of Ki accompanies every entry in the list below.
molecular target: SARS-associated coronavirus protease 3CL^pro (Severe acute respiratory syndrome coronavirus, UniProt P0C6U8)
Recall that a logarithmic scale is used here: each number is log10 of Ki in µM.

Sample answers from the record:
COMPOUND	RESULT
CCOC(=O)[C@H](Cc1ccccc1)NC(=O)c1cc(B(O)O)cc([N+](=O)[O-])c1	1.03
Nc1cc(B(O)O)cc(C(=O)O)c1	1.80
O=C(Oc1ccc2ccccc2c1)c1cc(B(O)O)cc([N+](=O)[O-])c1	1.22
O=C(Oc1c(Cl)cc(Cl)cc1Cl)c1cc(B(O)O)cc([N+](=O)[O-])c1	1.87
O=C(Oc1ccc(OC(=O)c2ccc(B(O)O)cc2F)c(Cl)c1)c1ccc(B(O)O)cc1F	1.59
O=C(Oc1ccccc1Br)c1cc(B(O)O)cc([N+](=O)[O-])c1	2.14
Cc1ccc(B(O)O)cc1NC(=O)c1c(Cl)cccc1Cl	1.57
O=C(OC(c1ccccc1)c1ccccc1)c1cc(B(O)O)cc([N+](=O)[O-])c1	2.50
O=C(O)c1cc(NC(=O)c2ccccc2F)cc(B(O)O)c1	2.02
O=C(O)c1cc(O)cc(B(O)O)c1 [FL-172, (3-carboxy-5-hydroxyphenyl)boronic acid]	0.54

Input: For the compound shown here, O=C(Oc1c(Cl)cccc1Cl)c1cc(B(O)O)cc([N+](=O)[O-])c1 , give the reported log10 of Ki.
Output: 1.79

Input: For the compound shown here, O=C(Oc1ccc(OC(=O)c2cc(B(O)O)cc([N+](=O)[O-])c2)cc1)c1cc(B(O)O)cc([N+](=O)[O-])c1 , give the reported log10 of Ki.
Output: 0.83

Input: For the compound shown here, O=C(Nc1cc(B(O)O)ccc1Cl)c1c(Cl)cccc1Cl , give the reported log10 of Ki.
Output: 1.79

Input: For the compound shown here, O=[N+]([O-])c1cc(NS(=O)(=O)c2ccccc2)cc(B(O)O)c1 , give the reported log10 of Ki.
Output: 1.70
